Attribution: ChEMBL document CHEMBL1152697

assay: Inhibition of soybean 15-lipoxygenase; parameters: species or system Glycine max
pIC50: −log10 of the molar value.
We use 5 as the dividing line for pIC50: on or above the line is 1, below is -1.

# smiles_notation, category
data = [
    ("C=CCOc1ccc(NC(=O)C2CC2)cc1", 1),
    ("C=CCOc1ccc(NC(=O)C2CCC2)cc1", 1),
    ("C=CCOc1ccc(NC(=O)c2cccc(F)c2)cc1", 1),
    ("C=CCc1ccc(OC(=O)c2ccccc2)cc1", 1),
    ("C=CCc1ccc(OC)c(OC)c1", -1),
]

====

test: Inhibition of soybean 15-lipoxygenase; design: species or system Glycine max
pIC50: −log10 of the molar value.

# smiles_notation, pIC50
records = [
    ("C=CCOc1ccc(NC(=O)C2CCCCC2)cc1", 5.19),
    ("C=CCc1ccc(O)c(OC)c1", 4.42),
    ("C=CCc1ccc(OC(=O)c2ccccc2)c(OC)c1", 5.15),
    ("C=CCOc1ccc(NC(=O)c2cccc(C)c2)cc1", 5.17),
    ("C=CCOc1ccc(NC(=O)C2CCCC2)cc1", 5.39),
    ("C=CCOc1ccc(NC(=O)c2cccc(Cl)c2)cc1", 5.09),
    ("C=CCOc1ccc(NC(=O)C23CC4CC(CC(C4)C2)C3)cc1", 6.17),
]
